pIC50, UniProt P06276, per-entry values.
Sequence (P06276 whole entry): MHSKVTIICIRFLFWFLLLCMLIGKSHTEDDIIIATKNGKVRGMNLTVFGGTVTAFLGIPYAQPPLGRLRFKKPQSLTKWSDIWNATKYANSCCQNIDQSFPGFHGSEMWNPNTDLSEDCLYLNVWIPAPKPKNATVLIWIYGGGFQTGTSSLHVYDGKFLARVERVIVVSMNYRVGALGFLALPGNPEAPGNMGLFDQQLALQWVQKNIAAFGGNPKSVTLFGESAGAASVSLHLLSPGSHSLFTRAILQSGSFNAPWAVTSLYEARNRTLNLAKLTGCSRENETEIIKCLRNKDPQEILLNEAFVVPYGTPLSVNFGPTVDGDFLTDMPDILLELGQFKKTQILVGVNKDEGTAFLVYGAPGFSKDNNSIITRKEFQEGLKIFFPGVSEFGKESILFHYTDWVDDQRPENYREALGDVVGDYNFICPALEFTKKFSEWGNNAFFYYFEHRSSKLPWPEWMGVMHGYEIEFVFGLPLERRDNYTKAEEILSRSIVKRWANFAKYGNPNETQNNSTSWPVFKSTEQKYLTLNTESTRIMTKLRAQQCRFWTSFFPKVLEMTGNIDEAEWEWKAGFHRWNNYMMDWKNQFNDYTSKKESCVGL
# pIC50: negative log10 of molar concentration; output just the value

Task item: Using the record for CNc1nc(NCc2ccc(OC)c(OC)c2)c2ccccc2n1 , report its pIC50.
Reply: 4.52

Task item: Can you check CCNc1nc(NCCc2ccccc2)c2ccccc2n1 next?
Reply: 5.49

Task item: Can you check COc1ccc(CCNc2nc(NC(C)C)nc3ccccc23)cc1OC next?
Reply: 5.11

Task item: Can you check COc1ccc(CNc2nc(NC(C)C)nc3ccccc23)cc1OC next?
Reply: 4.53

---

biological target: Acetylcholinesterase (Homo sapiens, UniProt P22303)
Sequence (P22303 whole entry): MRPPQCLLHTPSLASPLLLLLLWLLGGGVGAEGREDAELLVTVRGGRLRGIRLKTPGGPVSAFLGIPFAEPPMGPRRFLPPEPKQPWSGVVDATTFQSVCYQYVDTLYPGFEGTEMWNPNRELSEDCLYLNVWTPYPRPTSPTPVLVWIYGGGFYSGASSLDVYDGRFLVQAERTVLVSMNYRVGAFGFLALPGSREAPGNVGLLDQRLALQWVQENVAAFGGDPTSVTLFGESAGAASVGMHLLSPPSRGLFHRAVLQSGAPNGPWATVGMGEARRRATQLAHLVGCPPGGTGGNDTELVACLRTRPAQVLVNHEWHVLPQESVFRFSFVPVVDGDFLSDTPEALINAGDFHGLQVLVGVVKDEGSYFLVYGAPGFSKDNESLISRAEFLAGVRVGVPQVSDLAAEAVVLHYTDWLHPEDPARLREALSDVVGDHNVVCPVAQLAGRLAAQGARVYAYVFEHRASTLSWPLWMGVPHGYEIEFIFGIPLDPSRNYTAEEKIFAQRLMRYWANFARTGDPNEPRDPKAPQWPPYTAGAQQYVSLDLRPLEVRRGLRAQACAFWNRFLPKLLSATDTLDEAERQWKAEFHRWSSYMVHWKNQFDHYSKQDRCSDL
Definition: the class of an entry is the range in class A = under 7 µM, class B = from 7 µM up to 8 µM, class C = 8 µM and over that contains its IC50.

The examples below pair each entry with its known result.
Task item: Please classify: COc1ccc(CCNc2nc(NC(N)=O)nc3ccccc23)cc1OC
Reply: class C

Task item: Can you check CCNc1nc(NCc2ccc(OC)c(OC)c2)c2ccccc2n1 next?
Reply: class A

Task item: Can you check CNc1nc(NCc2ccc(OC)c(OC)c2)c2ccccc2n1 next?
Reply: class B

Task item: Can you check CNc1nc(NCCc2ccc(OC)c(OC)c2)c2ccccc2n1 next?
Reply: class C

Next:
Task item: Please classify: CCCNc1nc(NCc2ccc(OC)c(OC)c2)c2ccccc2n1
Reply: class A

Task item: Can you check CC(=O)Nc1nc(NCc2ccccc2)c2ccccc2n1 next?
Reply: class B

Task item: Can you check COc1ccc(CNc2nc(NC(N)=O)nc3ccccc23)cc1OC next?
Reply: class C

Task item: Can you check COc1ccc(CNc2nc(NC(C)=O)nc3ccccc23)cc1OC next?
Reply: class C

---

Form field: inhibition (one value per entry).
target: Amyloid-beta precursor protein (Homo sapiens, UniProt P05067); assay: Inhibition of HFIP-induced human recombinant amyloid beta (1 to 42 residues) aggregation expressed in Escherichia coli at 25 uM measured over 24 hrs by ThT-based fluorescence spectroscopic method relative to control
Sequence (P05067 whole entry, the tested form may be a part): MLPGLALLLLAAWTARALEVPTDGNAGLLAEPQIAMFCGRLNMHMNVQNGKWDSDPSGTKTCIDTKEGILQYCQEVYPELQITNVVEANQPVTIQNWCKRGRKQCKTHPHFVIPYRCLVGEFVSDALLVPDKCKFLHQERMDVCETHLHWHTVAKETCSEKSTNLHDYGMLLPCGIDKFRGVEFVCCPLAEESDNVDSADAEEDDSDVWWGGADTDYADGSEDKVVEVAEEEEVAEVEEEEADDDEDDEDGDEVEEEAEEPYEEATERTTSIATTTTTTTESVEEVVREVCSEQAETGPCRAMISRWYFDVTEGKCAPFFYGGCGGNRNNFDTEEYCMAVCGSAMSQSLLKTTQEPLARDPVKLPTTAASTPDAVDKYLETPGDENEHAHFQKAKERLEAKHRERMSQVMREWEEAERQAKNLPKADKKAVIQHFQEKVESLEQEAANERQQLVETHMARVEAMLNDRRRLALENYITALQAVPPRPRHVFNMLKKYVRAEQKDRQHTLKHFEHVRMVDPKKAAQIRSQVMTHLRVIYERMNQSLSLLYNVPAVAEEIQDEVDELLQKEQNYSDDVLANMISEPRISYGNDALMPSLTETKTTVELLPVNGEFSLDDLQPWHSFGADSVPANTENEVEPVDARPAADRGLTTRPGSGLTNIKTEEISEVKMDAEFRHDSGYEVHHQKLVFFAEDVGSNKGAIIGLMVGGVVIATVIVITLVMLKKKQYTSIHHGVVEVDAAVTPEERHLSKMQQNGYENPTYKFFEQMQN
State the answer as a number, implicitly in %.

Task item: Using the record for Nc1nc(NCCc2ccccc2)c2ccccc2n1 , report its inhibition.
Reply: 37

Task item: Can you check CC(=O)Nc1nc(NCc2ccccc2)c2ccccc2n1 next?
Reply: 31

Task item: Can you check COc1ccc(CCNc2nc(O)nc3ccccc23)cc1OC next?
Reply: 32

Task item: Can you check COc1ccc(CNc2nc(N)nc3ccccc23)cc1OC next?
Reply: 34

Task item: Can you check COc1ccc(CCNc2nc(NC3CC3)nc3ccccc23)cc1OC next?
Reply: 25

Next:
Task item: Using the record for Clc1nc(NCc2ccccc2)c2ccccc2n1 , report its inhibition.
Reply: 22

Task item: Can you check c1ccc(CNc2nc(NC3CC3)nc3ccccc23)cc1 next?
Reply: 31

Task item: Can you check CCNc1nc(NCCc2ccc(OC)c(OC)c2)c2ccccc2n1 next?
Reply: 41

Task item: Can you check CCNc1nc(NCc2ccccc2)c2ccccc2n1 next?
Reply: 24

Task item: Can you check CNc1nc(NCCc2ccccc2)c2ccccc2n1 next?
Reply: 40

---

IC50, Acetylcholinesterase (Homo sapiens), per-entry values.
The number alone won't do; follow it with the unit.

Task item: Using the record for CCCNc1nc(NCCc2ccccc2)c2ccccc2n1 , report its IC50.
Reply: 7.2 µM

---

Form field: pIC50 (one value per entry).
molecular target: UniProtKB P22303
# pIC50: negative log10 of molar concentration; output just the value

See these solved cases before continuing.
Task item: Using the record for COc1ccc(CNc2nc(NC3CC3)nc3ccccc23)cc1OC , report its pIC50.
Reply: 5.14

Task item: Can you check NC(=O)Cc1nc(NCc2ccccc2)c2ccccc2n1 next?
Reply: 5.14

Task item: Can you check COc1ccc(CCNc2nc(NC3CC3)nc3ccccc23)cc1OC next?
Reply: 5.14

Task item: Can you check COc1ccc(CCNc2nc(NC(C)C)nc3ccccc23)cc1OC next?
Reply: 5.12

Task item: Can you check COc1ccc(CCNc2nc(NC(C)=O)nc3ccccc23)cc1OC next?
Reply: 5.13

Next:
Task item: Using the record for CNc1nc(NCCc2ccccc2)c2ccccc2n1 , report its pIC50.
Reply: 5.06

Task item: Can you check CCNc1nc(NCc2ccccc2)c2ccccc2n1 next?
Reply: 5.12

---

biological target: Acetylcholinesterase (Homo sapiens, UniProt P22303)
Definition: the class of an entry is the range in A: < 7 µM; B: ≥ 7 µM and < 8 µM; C: ≥ 8 µM that contains its IC50.

Task item: Please classify: CCNc1nc(NCCc2ccccc2)c2ccccc2n1
Reply: B

Task item: Can you check NC(=O)Cc1nc(NCCc2ccccc2)c2ccccc2n1 next?
Reply: B

Task item: Can you check COc1ccc(CNc2nc(CC(N)=O)nc3ccccc23)cc1OC next?
Reply: B

Task item: Can you check COc1ccc(CCNc2nc(CC(N)=O)nc3ccccc23)cc1OC next?
Reply: C

Task item: Can you check c1ccc(CCNc2nc(NC3CC3)nc3ccccc23)cc1 next?
Reply: C

Next:
Task item: Please classify: CC(C)Nc1nc(NCc2ccccc2)c2ccccc2n1
Reply: A

Task item: Can you check c1ccc(CNc2nc(NC3CC3)nc3ccccc23)cc1 next?
Reply: A

Task item: Can you check NC(=O)Nc1nc(NCc2ccccc2)c2ccccc2n1 next?
Reply: C

Task item: Can you check CCNc1nc(NCCc2ccc(OC)c(OC)c2)c2ccccc2n1 next?
Reply: B

---

pIC50, UniProtKB P22303, per-entry values.
# pIC50: negative log10 of molar concentration; output just the value

Task item: Using the record for CC(=O)Nc1nc(NCCc2ccccc2)c2ccccc2n1 , report its pIC50.
Reply: 5.15

Task item: Can you check CCCNc1nc(NCc2ccccc2)c2ccccc2n1 next?
Reply: 5.11

Task item: Can you check COc1ccc(CNc2nc(NC(C)C)nc3ccccc23)cc1OC next?
Reply: 5.17

Task item: Can you check CNc1nc(NCc2ccccc2)c2ccccc2n1 next?
Reply: 5.10

Task item: Can you check CCCNc1nc(NCCc2ccc(OC)c(OC)c2)c2ccccc2n1 next?
Reply: 5.15

Task item: Can you check CC(C)Nc1nc(NCCc2ccccc2)c2ccccc2n1 next?
Reply: 5.14

Next:
Task item: Using the record for NC(=O)Nc1nc(NCCc2ccccc2)c2ccccc2n1 , report its pIC50.
Reply: 5.10

Reference for the values: ChEMBL document CHEMBL4002588
